Reference source: paper PMC3400037

- EXPERIMENTAL_PARAMETERS: human, in vivo, po
VALUE_KIND: Inter-individual variability—ωCL of ηCL

Record summary for O=C1Cc2cc(CCN3CCN(c4nsc5ccccc45)CC3)c(Cl)cc2N1 [Ziprasidone, ziprasidone] : reported Inter-individual variability—ωCL of ηCL = 69.0 % (21.4 %)

Record summary for Cc1cc2c(s1)Nc1ccccc1N=C2N1CCN(C)CC1 [Olanzapine, olanzapine] : reported Inter-individual variability—ωCL of ηCL = 64.7 % (17.2 %)

Record summary for OCCN1CCN(CCCN2c3ccccc3Sc3ccc(Cl)cc32)CC1 [Perphenazine, perphenazine] : reported Inter-individual variability—ωCL of ηCL = 78.8 % (11.4 %)

Record summary for Cc1nc2n(c(=O)c1CCN1CCC(c3noc4cc(F)ccc34)CC1)CCCC2 [Risperidone, risperidone] : reported Inter-individual variability—ωCL of ηCL = 7.3 % (32.2 %)

====

- ASSAY_EXPLANATION: clinical
- EXPERIMENTAL_PARAMETERS: human, in vivo, iv
VALUE_KIND: clearance (mL/min)
Just the number in mL/min, nothing appended.

Record summary for CN(C)CCCC1(c2ccc(F)cc2)OCc2cc(C#N)ccc21 (stereo not shown) [Citalopram, citalopram] : reported clearance = 20.3

====

- ASSAY_EXPLANATION: Population pharmacokinetic model of clinical plasma concentration data, manual stepwise forward inclusion/backward elimination (NONMEM)
- Type: in vivo, human
- EXPERIMENTAL_PARAMETERS: human, plasma, 0.33 mg/kg lean body mass; final stepwise model; IV; typical value (relative standard error); read-out: Clearance (L/h)—TVCL (converted)
VALUE_KIND: clearance (L/h)
Just the number in L/h, nothing appended.

Record summary for CN(C)CCCC1(c2ccc(F)cc2)OCc2cc(C#N)ccc21 (stereo not shown) : reported clearance = 7.11

====

- EXPERIMENTAL_PARAMETERS: human, in vivo, po
Can you tell me Absorption rate constant (1/h)—TVKA for the items I'm about to list?

Record summary for O=C1Cc2cc(CCN3CCN(c4nsc5ccccc45)CC3)c(Cl)cc2N1 : reported Absorption rate constant (1/h)—TVKA = 0.424 (5.8 %) 1/h

Record summary for CN(C)CCC[C@@]1(c2ccc(F)cc2)OCc2cc(C#N)ccc21 : reported Absorption rate constant (1/h)—TVKA = 0.594 (23.1 %) 1/h

Record summary for Cc1cc2c(s1)Nc1ccccc1N=C2N1CCN(C)CC1 : reported Absorption rate constant (1/h)—TVKA = 0.773 (70.4 %) 1/h

Record summary for Cc1nc2n(c(=O)c1CCN1CCC(c3noc4cc(F)ccc34)CC1)CCCC2 : reported Absorption rate constant (1/h)—TVKA = 0.184.(21.1 %) 1/h

Record summary for OCCN1CCN(CCCN2c3ccccc3Sc3ccc(Cl)cc32)CC1 : reported Absorption rate constant (1/h)—TVKA = 0.859 (80.7 %) 1/h
